# assayedTarget: T1, biotinylated hBLyS-ECD (human, UniProt Q9Y275 134-285, biotinylated with Biotin-X-X-NHS (molar ratio 7:1); sites not stated)
# T1 construct: also called biotinylated immunogen; biotinylated hBLvS-ECD
# T1 sequence (Q9Y275 134-285): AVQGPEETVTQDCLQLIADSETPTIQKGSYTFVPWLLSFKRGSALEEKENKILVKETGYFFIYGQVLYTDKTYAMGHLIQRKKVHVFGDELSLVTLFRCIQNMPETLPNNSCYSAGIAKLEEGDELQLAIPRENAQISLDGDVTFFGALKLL
# measurementDescription: ELISA on captured biotinylated hBLyS-ECD; antibody 2.67 nM
Let's look at some binders and their measured OD450 nm.
quantityName: OD450 nm (OD450 nm)

# binder, quantityName, measurementUnit, value
rows = [
    ("c97A3C2H4 (antibody, V domains shown, also called chimeric antibody c97A3C2H4) VH: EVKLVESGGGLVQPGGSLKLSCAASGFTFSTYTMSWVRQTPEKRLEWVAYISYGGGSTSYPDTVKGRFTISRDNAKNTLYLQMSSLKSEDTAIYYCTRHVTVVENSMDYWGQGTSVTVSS VL: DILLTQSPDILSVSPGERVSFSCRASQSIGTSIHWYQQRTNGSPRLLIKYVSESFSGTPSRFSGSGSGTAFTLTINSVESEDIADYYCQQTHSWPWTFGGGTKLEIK", "OD450 nm", "OD450 nm", 2.25),
    ("h8E7D9C7F5-1 (antibody, V domains shown, Humanized antibody; also called humanized BLyS antibody h8E7D9C7F5 variant 1 (VH.1 / Vk.1)) VH: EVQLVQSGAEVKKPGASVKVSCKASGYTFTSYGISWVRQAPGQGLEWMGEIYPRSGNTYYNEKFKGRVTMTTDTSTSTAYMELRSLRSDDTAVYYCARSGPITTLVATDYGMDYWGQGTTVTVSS VL: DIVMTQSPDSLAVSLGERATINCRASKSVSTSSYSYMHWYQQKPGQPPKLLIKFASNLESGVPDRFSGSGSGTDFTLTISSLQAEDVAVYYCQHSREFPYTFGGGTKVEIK", "OD450 nm", "OD450 nm", 2.18),
    ("h97A3C2H4-9 (antibody, V domains shown, Humanized antibody; VH3-7/JH6 CDR-grafted with A93T, G44R; also called humanized BLyS antibody h97A3C2H4 variant 9 (VH.1b / Vk.1d)) VH: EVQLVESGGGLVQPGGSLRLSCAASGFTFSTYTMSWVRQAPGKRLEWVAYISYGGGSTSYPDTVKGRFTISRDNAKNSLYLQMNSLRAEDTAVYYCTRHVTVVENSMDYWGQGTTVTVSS VL: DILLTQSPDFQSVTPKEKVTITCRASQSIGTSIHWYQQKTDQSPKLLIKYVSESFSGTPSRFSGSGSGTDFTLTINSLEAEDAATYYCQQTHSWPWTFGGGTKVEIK", "OD450 nm", "OD450 nm", 2.24),
    ("c8E7D9C7F5 (antibody, V domains shown, also called chimeric antibody c8E7D9C7F5) VH: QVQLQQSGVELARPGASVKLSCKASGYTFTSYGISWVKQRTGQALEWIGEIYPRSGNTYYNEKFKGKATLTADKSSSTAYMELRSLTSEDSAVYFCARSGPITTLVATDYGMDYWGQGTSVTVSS VL: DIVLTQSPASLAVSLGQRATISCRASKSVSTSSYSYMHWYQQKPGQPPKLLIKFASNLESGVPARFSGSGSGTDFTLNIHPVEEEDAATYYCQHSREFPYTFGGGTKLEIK", "OD450 nm", "OD450 nm", 2.21),
]

Taken from patent US20210347873A1.
